Taken from ChEMBL document CHEMBL1124490.

- measurement.notes: Concentration of compound provoking 50% inhibition on growth of Leishmania donovani promastigotes
- Type: functional
- condition.set: read-out: I50
The entries below come with measured pIC50 values attached.
Keep in mind that pIC50 stands for -log10 of concentration in molar terms.

In the examples that follow, each entry is paired with its recorded pIC50.
N/C(S)=N/N=C/c1cc2c3ccccc3nc-2c[nH]1
5.30
C/C(=N\N=C(\N)S)c1cc2c3ccccc3nc-2c[nH]1
5.60

Here's the next entry for you.
Input: Which value of pIC50 has been reported for N=C(N)c1ccc(OCCCCCOc2ccc(C(=N)N)cc2)cc1 in the records?
Output: 6.25
